Tested on: TO-3-N3-2 (biotin conjugate)
assay.comment: pull-down binding Z-score (relative to library population); higher = stronger binding
test.context: RNA library: Library-2
Classification field: enter 1 (yes) for pull-down binding Z-score values not below -0.2, 0 (no) for values below it.

The examples below pair each entry with its known result.
| primary.sequence | class |
| --- | --- |
| CUGAACUGGGCUGGGUUGAGCUGGGCUGGGCUGAGUUGAG [hsa-mir-4538] | 1 (yes) |
| CCAUGCAACAUUUGG [hsa-mir-1302-4] | 0 (no) |
| AGCUUCUACGUCAUUCAGCACUUGCU [hsa-mir-5706] | 0 (no) |
| UGCCAUUAAAAGUAAUGGCA [hsa-mir-548i-3_548i-2_548i-1] | 1 (yes) |
| GGGUAGUGGUGAGCAUUGACC [IAV_invivo_PB2_1_Motif_22+IAV_invivo_PB2_1_Motif_22] | 1 (yes) |
| GGCGUCUCAAGGCACC [IAV_invivo_NP_5_Motif_2+IAV_invivo_NP_5_Motif_2] | 0 (no) |
| GGAGGGCCUUCUACGGAAGGAGUGCC [IAV_invivo_M1_M2_7_Motif_16+IAV_invivo_M1_M2_7_Motif_16] | 1 (yes) |
| GGGUGGGCGGGGGCGGCCGGUGGGAACCCCGCCCCGCCCCGCGCCCGCACUCACCC [hsa-mir-7108] | 1 (yes) |

Exercise: # check: pull-down binding Z-score of CCUACUGAUGG [IAV_invivo_PA_3_Motif_12+IAV_invivo_PA_3_Motif_12] is greater than or equal to -0.2
Solution: 0 (no)

Exercise: // inclusive: pull-down binding Z-score at least -0.2? input: CCUUGUAGGUUUGUUACAGACACACCUAAAGG
Solution: 0 (no)

Exercise: Textbook exercise: given the entry CCCUGGUCAGACUCUCCGGGG [hsa-mir-4675] , state whether its pull-down binding Z-score is greater than or equal to -0.2.
Solution: 0 (no)
